Target: human PD-1 (Jurkat-PD-1 cells) / PE-labeled human PD-L1-Ig (Homo sapiens, UniProt Q15116)
Construct: expressed in transfected cells; host or cells: Jurkat cell line over-expressing human PD-1
Sequence (Q15116 25-288): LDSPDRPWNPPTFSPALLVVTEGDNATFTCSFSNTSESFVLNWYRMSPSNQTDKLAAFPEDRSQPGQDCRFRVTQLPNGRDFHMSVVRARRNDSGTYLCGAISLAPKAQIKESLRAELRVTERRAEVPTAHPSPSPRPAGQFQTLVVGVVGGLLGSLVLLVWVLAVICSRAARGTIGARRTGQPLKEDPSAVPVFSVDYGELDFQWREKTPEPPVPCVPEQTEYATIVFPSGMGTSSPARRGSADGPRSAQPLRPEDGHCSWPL
Assay: Jurkat-PD-1 Cell Binding High-Content Screening Assay (CBA); Jurkat hPD1-PDL1 assay
Settings: Jurkat cell line over-expressing human PD-1; PE-labeled PD-L1-Ig 20 nM final; compound incubated 2 hours at 37° C.; read-out: Jurkat HPD1-PDL1 IC50
pIC50: −log10 of the molar value. Positions of bridges follow the written chain, without caps; N, C: chain ends. Non-standard residues stand in square brackets, D forms with d. Residues, ends and D or L forms follow the SMILES beside them. Bip = N[C@@H](Cc1ccc(-c2ccccc2)cc1)C(=O)O; Aad = N[C@@H](CCCC(=O)O)C(=O)O; NMeA = CN[C@@H](C)C(=O)O; Sar = CNCC(=O)O

compound: CC(C)C[C@@H]1NC(=O)[C@H](Cc2c[nH]c3ccccc23)NC(=O)[C@H](CC(=O)O)NC(=O)[C@H](Cc2ccc(O)cc2)NC(=O)[C@H](Cc2ccccc2)NC(=O)CSC[C@@H](C(=O)N[C@@H](C)C(N)=O)NC(=O)[C@H](CO)NC(=O)[C@H](C(C)C)NC(=O)[C@H](CC(C)C)NC(=O)[C@H](CC(N)=O)NC(=O)CN(C)C(=O)[C@H](C)N(C)C(=O)[C@H](CCCC(=O)O)NC(=O)[C@H](Cc2ccc(-c3ccccc3)cc2)NC1=O [Example 1092] ({CH2CO}-FYDWL[Bip][Aad][NMeA][Sar]NLVSCA-NH2; thioether N-14)
pIC50: 6.59
--
compound: CC(C)C[C@@H]1NC(=O)[C@H](Cc2c[nH]c3ccccc23)NC(=O)[C@H](CC(=O)O)NC(=O)[C@H](Cc2ccc(O)cc2)NC(=O)[C@H](Cc2ccccc2)NC(=O)CSC[C@@H](C(=O)N[C@@H](CCCCN)C(N)=O)NC(=O)[C@H](CO)NC(=O)[C@H](C(C)C)NC(=O)[C@H](CC(C)C)NC(=O)[C@H](CC(N)=O)NC(=O)CN(C)C(=O)[C@H](C)N(C)C(=O)[C@H](C(C)C)NC(=O)[C@H](Cc2ccc(-c3ccccc3)cc2)NC1=O [Example 1253] ({CH2CO}-FYDWL[Bip]V[NMeA][Sar]NLVSCK-NH2; thioether N-14)
pIC50: 6.15
